Please respond with reported CC50 for every item in the list.
assay: NOVARTIS: Cytotoxicity against human hepatocellular carcinoma cell line (Huh7); format: toxicity, cell-based, Huh-7; conditions: Huh7 cells (hepatocellular carcinoma cell line)

**Query** # lookup: CC50 of `Nc1cc(-c2cccs2)n[nH]1`
**Result** > 100 µM

**Query** Would you kindly share the measured CC50 for `COC(=O)[C@@H]1C[C@H](NC(=O)c2[nH]c3ccc(Cl)cc3c2-c2ccccc2)CN1Cc1cc(OC)cc(OC)c1` ?
**Result** > 100 µM

**Query** Which CC50 reading was recorded for the compound `CCN(CC)CCCN(Cc1cc2cc3c(cc2[nH]c1=O)OCCO3)C(=S)Nc1cccc(Cl)c1` ?
**Result** 21.2 µM

**Query** Fill in the blank: the reported CC50 of `COc1cccc2c1OCC(C(=O)Nc1ccc(C)cc1)=C2` is ____.
**Result** 54.7 µM

**Query** Which CC50 is listed for CC1CCN(c2ncnc3sc4c(c23)CCC(C)C4)CC1 (centres undefined) ?
**Result** > 100 µM

**Query** Which measured CC50 value corresponds to CC(C(=O)NN=C1CCN(C)CC1)N(c1ccccc1)S(C)(=O)=O (centres undefined) ?
**Result** > 10 µM

**Query** Item O=c1[nH]c(SCC(O)c2ccc(Cl)c(Cl)c2)nc2sc3ccccc3c12 (centres undefined) has what recorded CC50?
**Result** > 10 µM

**Query** Requested read-out: CC50. Entry: `O=C(C1CC1)N1CCc2cc(Br)cc(S(=O)(=O)N3CCCC3)c21`
**Result** > 100 µM

**Query** Any idea what CC50 was measured for `CCC(/C=C1\Sc2ccc3ccccc3c2N1C)=C\c1sc2ccc3ccccc3c2[n+]1C` ?
**Result** > 100 µM

**Query** Can you look up the measured CC50 of `Cc1cc(N2CCCC2)nc2ccc(NC(=S)NCCCN3CCc4ccccc4C3)cc12` for me?
**Result** 19.1 µM

**Query** Returns the measured CC50 for the input compound. Input: `Cc1ccc(-c2cc(-c3cc(Cl)ccc3O)on2)cc1`
**Result** > 10 µM

**Query** Look up CC50 for this compound: `COc1cccc(C(=O)Oc2ccccc2-c2nc3ccccn3c2NC(C)(C)CC(C)(C)C)c1`
**Result** > 10 µM

**Query** GET /values?readout=CC50&item= CC(C)CN(CC(=O)N1CCC(Nc2nsc3ccccc23)C1)S(C)(=O)=O (centres undefined)
**Result** 15.7 µM

**Query** I am curious: what CC50 value has been reported for CCC(CC)C(=O)Nc1c2c(nn1-c1cccc(Cl)c1)C[S+]([O-])C2 (centres undefined) ?
**Result** > 100 µM

**Query** Would you mind telling me what CC50 value was observed for `O=C(Cn1c2ccccc2c(=O)c2cc(Cl)ccc21)Nc1cccc(C(F)(F)F)c1` ?
**Result** > 10 µM

**Query** Value lookup for CC50; key = `COc1ccc(-[n+]2cc(-c3ccc(Br)cc3)n3c2SCCC3)cc1`
**Result** > 100 µM

**Query** Could you tell me which CC50 is on file for `CC(=O)N(C1=C(N2CCCC2)C(=O)c2ccccc2C1=O)c1ccccc1C` ?
**Result** 11.5 µM

**Query** Recorded CC50 for `Oc1ccc(-c2ccccc2)cc1CNC1CCCCC1` , please?
**Result** > 10 µM

**Query** Item under review: `CN(CCCNc1ccnc2cc(Cl)ccc12)C(=O)c1cc(Cl)cc(Cl)c1` . Reported CC50?
**Result** > 10 µM

**Query** For the compound shown here, CCOc1cc(C2CC(=O)NC3=C2C(=O)CC(c2ccc(OC)cc2)C3)cc(Cl)c1O (centres undefined) , give the reported CC50.
**Result** > 100 µM

**Query** Endpoint output: CC50 of Cc1ccc(Cn2c(=N)n(CC(O)c3ccc(Cl)c(Cl)c3)c3ccccc32)cc1 (centres undefined) . Value?
**Result** 6 µM

**Query** Quick check: CC50 of `CN(C)c1ccc(-c2cc(-c3ccccc3)[s+]c(-c3ccccc3)c2)cc1` ?
**Result** 1.69 µM

**Query** Given the entry `O=C(NC(=CC=Cc1ccccc1)C(=O)N1CCOCC1)c1ccc(Br)cc1` , report its measured CC50.
**Result** > 100 µM

**Query** Requested read-out: CC50. Entry: O=C1[C@H]2Cc3c([nH]c4ccccc34)C(CCc3ccccc3)N2C(=O)CN1CCc1c[nH]c2ccccc12 (some centres undefined)
**Result** > 10 µM

**Query** Look at this compound and give its reported CC50. `C=CCNC(=O)c1ccc2c(c1)N=CN(CCOc1ccccc1)C2`
**Result** > 10 µM

**Query** Would you mind telling me what CC50 value was observed for `COc1cccc(-c2ccc(O)c(CNC3CCCCCCC3)c2)n1` ?
**Result** 23.1 µM

**Query** Would you kindly share the measured CC50 for FC(F)(F)c1cccc(NC(=S)N2CCCC2c2ccncc2)c1 (centres undefined) ?
**Result** > 10 µM

**Query** Return reported CC50; argument: `COc1cccc2cc(C(=O)Nc3cccc(C(F)(F)F)c3)c(=O)oc12`
**Result** > 2.37 µM

**Query** CC50 lookup needed for `Cc1nc(NCCCN(C)C)c2sc3nc4c(cc3c2n1)COC(C)(C)C4` , thanks.
**Result** > 100 µM

**Query** Could you share which CC50 value was measured for COC(=O)C1=C(C)NC2=C(C(=O)CC(C)(C)C2)C1c1ccccc1[N+](=O)[O-] (centres undefined) ?
**Result** > 91.5 µM

**Query** Need CC50, item COC(=O)C1=C(C)NC2=C(C(=O)CC(c3ccc(Cl)cc3)C2)C1c1ccc(F)cc1 (centres undefined)
**Result** > 100 µM

**Query** Can you share its CC50? I mean this compound: `CC(C)c1ccc2c(c1)c1c3c([n+](C)ccn32)CCC1`
**Result** 31.8 µM

**Query** Given the compound `COC(=O)C1=C(C)NC(=Cc2cc(C)n(-c3ccc(Cl)c(Cl)c3)c2C)C1=O` , what is its reported CC50?
**Result** > 100 µM

**Query** Which CC50 value is on record for `Cc1ccccc1C(=O)N1CCC(n2nccc2NC(=O)CCOc2ccccc2)CC1` ?
**Result** > 100 µM

The reported numbers originate from ChEMBL document CHEMBL1156829.
